The reader will find reported pKd values listed item by item below.
- TARGET: cynomolgus serum albumin (cynomolgus, UniProt A2V9Z4 25-608)
- Sequence (A2V9Z4 25-608 limits assumed): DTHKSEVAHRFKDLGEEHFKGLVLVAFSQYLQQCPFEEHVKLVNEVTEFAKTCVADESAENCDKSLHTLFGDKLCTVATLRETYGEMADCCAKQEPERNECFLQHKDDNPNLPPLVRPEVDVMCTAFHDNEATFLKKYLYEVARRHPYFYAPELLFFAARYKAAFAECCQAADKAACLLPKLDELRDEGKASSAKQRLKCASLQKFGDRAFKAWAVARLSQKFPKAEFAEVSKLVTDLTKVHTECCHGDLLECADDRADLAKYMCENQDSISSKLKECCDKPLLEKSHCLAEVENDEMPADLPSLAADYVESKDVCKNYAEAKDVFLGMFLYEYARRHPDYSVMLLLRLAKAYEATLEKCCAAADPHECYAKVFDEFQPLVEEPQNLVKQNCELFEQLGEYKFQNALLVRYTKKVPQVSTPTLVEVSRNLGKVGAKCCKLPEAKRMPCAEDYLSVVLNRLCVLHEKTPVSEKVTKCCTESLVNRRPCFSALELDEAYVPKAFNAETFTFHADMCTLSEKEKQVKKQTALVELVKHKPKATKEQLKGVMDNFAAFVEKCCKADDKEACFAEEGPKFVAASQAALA
- PROCEDURE DETAILS: Octet HTX (ForteBio), HCAb on AHC sensor, 1:1 fit
Convention used: pKd is expressed as -log10 of the molar concentration.

# count of solved cases: 7
CNG-HSA-111 (VHH) VHH: KVQLVESGGGLVQPGGSLRLSCAASGFTFSSFGMSWVRQAPGKGLEWVSSISGSGSDTLYADSVEGRFTISRDNSKNTLYLQMNSLRAEDTAVYYCTIGGSLKQSSQGTLVTVSS; 8.21
CNG-HSA-119 (VHH) VHH: KVQLVESGGGLVQPGNSLRLSCAASGFTFSSFGMSWVRQAPGKGLEWVSSISGSGSDALYADSAKGRFTISRDNAKTTLYLQMNSLRAEDTAVYYCTIGGSLSPSSQGTLVTVSS; 8.24
CNG-HSA-112 (VHH) VHH: KVQLLESGGGLVQPGGSLRLSCAASGFTFPSFGMSWVRQAPGKGLEWVSSISGSGSDTLYADSVKGRFTISRDNAKTTLYLQMNSLRPEDTAVYYCTIGGSVSKSSRGTLVTVSS; 8.13
CNG-HSA-102 (VHH) VHH: KVQLLESGGGLVQPGGSLRLSCAASGFTFSSFGMSWVRQAPGKGLEWVSSISGSGSDTLYADSVRGRFTISRDNSKNTLYLQMNSLRPEDTAVYYCTIGGSLSPSSQGTLVTVSS; 8.44
CNG-HSA-107 (VHH) VHH: KVQLLESGGGLVQPGGSLRLSCAASGFTFSSFGMSWVRQAPGKGLEWVSSISGSGSDTLYADSVRGRFTISRDNSKNTLYLQMNSLRAEDTAVYYCSIGGSLIRSSQGTLVTVSS; 7.88
CNG-HSA-116 (VHH) VHH: KVQLVESGGGLVQPGGSLRLSCAASGFTFSSFGMSWVRQAPGKGPEWVSSISGSGSDTLYADSVKGRFTISRDNSKNTLYLQMNSLRAEDTAVYYCTIGGSLRASSQGTLVTVSS; 8.41
CNG-HSA-113 (VHH) VHH: GVQLLESGGGLVQPGGSLRLSCAASGFTFSSFGMSWVRQAPGKGLEWVSSISGTGSDTLYADSVKGRFTISRDNSKNTLYLQMNSLRPEDTAVYYCTIGGSLRYSSQGTLVTVSS; 7.92

The reported pKd of the binder CNG-HSA-114 (VHH) VHH: KVQLVESGGGLVQPGNSLRLSCAASGFTFSSFGMSWVRQAPGKGLEWVSSISGSGSDTLTADSVKGRFTISRDNSKNTLYLQMNSLRAEDTAVYYCTIGGSLVRSSQGTLVTVSS was 7.92
